The origin of these recorded values is patent US10227324B2.

target: PI3K-α kinase (p110α/p85α) (Homo sapiens); construct: purchased Invitrogen PV4788; test: Determination of PI3K kinase activity (ADP Transcreener, fluorescence polarization); format: biochemical; settings: Table 1; ATP 10 μM; read-out: PI3K-α/nM (IC50 of inhibitory activity against PI3K kinase)
Sequence (P42336 whole entry): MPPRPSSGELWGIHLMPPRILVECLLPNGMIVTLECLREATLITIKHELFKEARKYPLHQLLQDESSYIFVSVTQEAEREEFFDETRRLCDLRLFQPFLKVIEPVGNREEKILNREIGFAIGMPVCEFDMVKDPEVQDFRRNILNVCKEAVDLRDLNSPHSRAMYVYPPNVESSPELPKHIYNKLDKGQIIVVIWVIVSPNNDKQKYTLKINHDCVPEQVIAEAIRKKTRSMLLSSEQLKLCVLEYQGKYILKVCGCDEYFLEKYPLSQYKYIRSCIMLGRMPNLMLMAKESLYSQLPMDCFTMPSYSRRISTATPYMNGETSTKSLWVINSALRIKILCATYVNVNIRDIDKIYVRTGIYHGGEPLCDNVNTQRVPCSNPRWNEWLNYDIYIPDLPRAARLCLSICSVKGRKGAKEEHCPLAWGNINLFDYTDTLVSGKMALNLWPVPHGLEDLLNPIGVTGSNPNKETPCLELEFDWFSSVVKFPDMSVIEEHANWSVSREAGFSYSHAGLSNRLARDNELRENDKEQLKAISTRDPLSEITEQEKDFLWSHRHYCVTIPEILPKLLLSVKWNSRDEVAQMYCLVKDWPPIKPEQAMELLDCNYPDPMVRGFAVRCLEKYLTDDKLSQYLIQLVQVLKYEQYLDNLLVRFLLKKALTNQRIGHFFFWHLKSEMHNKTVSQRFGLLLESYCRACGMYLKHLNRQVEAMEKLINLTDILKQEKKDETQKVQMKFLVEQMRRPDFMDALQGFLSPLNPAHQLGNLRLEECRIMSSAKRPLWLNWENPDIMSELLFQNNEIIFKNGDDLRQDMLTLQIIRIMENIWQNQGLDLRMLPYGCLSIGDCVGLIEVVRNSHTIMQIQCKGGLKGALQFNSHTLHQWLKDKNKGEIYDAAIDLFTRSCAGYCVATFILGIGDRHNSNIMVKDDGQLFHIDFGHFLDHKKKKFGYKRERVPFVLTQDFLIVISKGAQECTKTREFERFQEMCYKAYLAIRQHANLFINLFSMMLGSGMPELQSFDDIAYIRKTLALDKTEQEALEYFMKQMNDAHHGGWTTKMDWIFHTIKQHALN
Sequence (P27986 whole entry partner): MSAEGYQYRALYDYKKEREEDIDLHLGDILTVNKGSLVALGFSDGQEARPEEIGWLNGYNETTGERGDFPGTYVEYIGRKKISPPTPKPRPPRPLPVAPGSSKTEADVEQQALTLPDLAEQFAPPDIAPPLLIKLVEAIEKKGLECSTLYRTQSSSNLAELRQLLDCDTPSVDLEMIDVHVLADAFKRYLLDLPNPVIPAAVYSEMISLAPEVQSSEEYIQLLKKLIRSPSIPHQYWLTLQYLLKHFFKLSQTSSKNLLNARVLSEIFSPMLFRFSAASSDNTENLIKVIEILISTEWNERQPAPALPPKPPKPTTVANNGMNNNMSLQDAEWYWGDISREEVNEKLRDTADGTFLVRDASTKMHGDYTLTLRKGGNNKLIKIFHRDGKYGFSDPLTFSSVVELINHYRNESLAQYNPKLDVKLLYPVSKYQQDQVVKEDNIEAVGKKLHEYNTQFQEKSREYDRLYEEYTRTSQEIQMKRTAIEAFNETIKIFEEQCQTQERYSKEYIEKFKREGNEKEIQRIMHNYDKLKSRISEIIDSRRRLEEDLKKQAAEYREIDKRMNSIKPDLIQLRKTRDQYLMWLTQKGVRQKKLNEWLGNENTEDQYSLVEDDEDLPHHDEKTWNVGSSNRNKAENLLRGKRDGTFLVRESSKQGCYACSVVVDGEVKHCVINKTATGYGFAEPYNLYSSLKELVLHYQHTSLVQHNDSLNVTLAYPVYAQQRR
Endpoint label: IC50 (nM)

Molecule smiles: CS(=O)(=O)C1(c2cc(-c3cnc(N)cc3F)nc(N3CCOCC3)n2)CC1
Units symbol: nM
Result: 39

(I) CS(=O)(=O)NC1(c2cc(-c3cnc(N)cc3C(F)(F)F)nc(N3CCOCC3)n2)CC1
(II) COC(C)(C)c1cc(-c2cnc(N)cc2C(F)(F)F)nc(N2CCOC[C@H]2C)n1
Identify the entry with the larger IC50. Options: I and II # reply format: chosen label
II
(II: 28 nM, I: 10 nM)
